biological target: FKBP51 / FRB ternary complex (Homo sapiens (Human), UniProt P42345+Q13451); assay: SPR assay to characterize ternary complex formation with FKBP51 (FRB binding to rapalog-saturated FKBP51); conditions: FRB dilutions with 100 nM rapalog on immobilized FKBP51
metric name: Kd

In the examples that follow, each entry is paired with its recorded Kd.
CO[C@@H]1C[C@H](C[C@@H](C)[C@@H]2CC(=O)[C@H](C)/C=C(\C)[C@@H](O)[C@@H](OC)C(=O)[C@H](C)C[C@H](C)/C=C/C=C/C=C(\C)[C@@H](OC3CC3)C[C@@H]3CC[C@@H](C)[C@@](O)(O3)C(=O)C(=O)N3CCCC[C@H]3C(=O)O2)CC[C@H]1OCCCS(C)(=O)=O; < 300 nM
CCOC(=O)COC1CCC(CC(C)C2CC(=O)C(C)C=C(C)C(O)C(OC)C(=O)C(C)CC(C)C=CC=CC=C(C)C(OCC3CC3)CC3CCC(C)C(O)(O3)C(=O)C(=O)N3CCCCC3C(=O)O2)CC1OC (stereo not shown) [Compound 50]; > 800 nM
CO[C@@H]1C[C@H](C[C@@H](C)[C@@H]2CC(=O)[C@H](C)/C=C(\C)[C@@H](O)[C@@H](OC)C(=O)[C@H](C)C[C@H](C)/C=C/C=C/C=C(\C)[C@@H](OCCC3CCO3)C[C@@H]3CC[C@@H](C)[C@@](O)(O3)C(=O)C(=O)N3CCCC[C@H]3C(=O)O2)CC[C@H]1O (stereo partly shown); > 800 nM

Pending molecule:
Q: # get_value(readout='Kd', item= COC1C(=O)C(C)CC/C=C/C=C/C=C(\C)[C@@H](NS(=O)(=O)CCO)C[C@H]2CC[C@H](C)[C@](O)(O2)C(=O)C(=O)N(C)C(C)C(=O)OC([C@H](C)C[C@@H]2CC[C@@H](OC3CC3)[C@H](OC)C2)CC(=O)C(C)/C=C(\C)C1O (stereo partly shown) )
A: 300 to 800 nM

---

target: UniProtKB Q13451
Sequence (Q13451 whole entry): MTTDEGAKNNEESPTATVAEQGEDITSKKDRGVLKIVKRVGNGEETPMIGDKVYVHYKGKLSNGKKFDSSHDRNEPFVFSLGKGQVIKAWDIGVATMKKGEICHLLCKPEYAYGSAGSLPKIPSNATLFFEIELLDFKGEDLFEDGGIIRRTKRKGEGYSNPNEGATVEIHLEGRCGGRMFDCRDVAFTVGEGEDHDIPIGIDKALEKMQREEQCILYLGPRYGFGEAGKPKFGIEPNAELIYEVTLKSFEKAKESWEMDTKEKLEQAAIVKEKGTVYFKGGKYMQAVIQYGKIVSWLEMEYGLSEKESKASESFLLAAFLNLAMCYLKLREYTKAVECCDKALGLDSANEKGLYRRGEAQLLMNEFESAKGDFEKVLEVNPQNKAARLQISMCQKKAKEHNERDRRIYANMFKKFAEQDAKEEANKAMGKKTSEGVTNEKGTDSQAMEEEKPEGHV
pKd: −log10 of the molar value.
metric name: pKd

COC1CC(CC(C)C2CC(=O)C(C)C=C(C)C(O)C(OC)C(=O)C(C)CC(C)C=CC=CC=C(C)C(OC3CC3)CC3CCC(C)C(O)(O3)C(=O)C(=O)N3CCCCC3C(=O)O2)CCC1OCCCO (centres unmarked) [Compound 53]; < 7.00

Pending molecule:
Q: Recorded pKd for CO[C@@H]1C[C@H](C[C@@H](C)[C@@H]2CC(=O)[C@H](C)/C=C(\C)[C@H](O)[C@@H](OC)C(=O)[C@H](C)C[C@H](C)/C=C/C=C/C=C(\C)[C@@H](OCCC3COC3)C[C@@H]3CC[C@@H](C)[C@@](O)(O3)C(=O)C(=O)N3CCCC[C@H]3C(=O)O2)CC[C@H]1O [Compound 55] with UniProtKB Q13451, please?
A: < 7.00

---

Listed next: entries and their corresponding IC50.
target: mTORC1 (Homo sapiens (Human), UniProt P42345+P62942); assay: mTORC1 inhibition, AlphaLISA of Phospho-p70 S6 kinase (p70S6K pT389) in PC-3 cells; details: inhibition of p70S6K pT389 levels

In the examples that follow, each entry is paired with its recorded IC50.
CO[C@@H]1C[C@H](C[C@@H](C)[C@@H]2CC(=O)[C@H](C)/C=C(\C)[C@@H](O)[C@@H](OC)C(=O)[C@H](C)C[C@H](C)/C=C/C=C/C=C(\C)[C@@H](OCCCO)C[C@@H]3CC[C@@H](C)[C@@](O)(O3)C(=O)C(=O)N3CCCC[C@H]3C(=O)O2)CC[C@H]1OCCCS(C)(=O)=O [Compound 68]; < 0.1 nM
COCCOCCS(=O)(=O)NC1CC2CCC(C)C(O)(O2)C(=O)C(=O)N2CCCCC2C(=O)OC(C(C)CC2CCC(OCCO)C(OC)C2)CC(=O)C(C)C=C(C)C(O)C(OC)C(=O)C(C)CC(C)C=CC=CC=C1C (mixture of isomers) [Compound 7]; 0.1 to 0.8 nM
COCCOCCS(=O)(=O)NC1CC2CCC(C)C(O)(O2)C(=O)C(=O)N2CCCCC2C(=O)OC(C(C)CC2CCC(OCCCS(C)(=O)=O)C(OC)C2)CC(=O)C(C)C=C(C)C(O)C(OC)C(=O)C(C)CC(C)C=CC=CC=C1C (mixture of isomers) [Compound 4]; < 0.1 nM

Q: # get_value(readout='IC50', item= CO[C@@H]1C[C@H](C[C@@H](C)[C@@H]2CC(=O)[C@H](C)/C=C(\C)[C@@H](O)[C@@H](OC)C(=O)[C@H](C)C[C@H](C)/C=C/C=C/C=C(\C)[C@@H](OC3CCS(=O)(=O)C3)C[C@@H]3CC[C@@H](C)[C@@](O)(O3)C(=O)C(=O)N3CCCC[C@H]3C(=O)O2)CC[C@H]1O (stereo partly shown) [Compound 26] )
A: > 0.8 nM

---

molecular target: FKBP51 / FRB ternary complex (Homo sapiens (Human), UniProt P42345+Q13451); assay: SPR assay to characterize ternary complex formation with FKBP51 (FRB binding to rapalog-saturated FKBP51); settings: FRB dilutions with 100 nM rapalog on immobilized FKBP51
pKd: −log10 of the molar value.
metric name: pKd

In the examples that follow, each entry is paired with its recorded pKd.
COC1CC(CC(C)C2CC(=O)C(C)C=C(C)C(O)C(OC)C(=O)C(C)CC(C)C=CC=CC=C(C)C(OC3CCOCC3)CC3CCC(C)C(O)(O3)C(=O)C(=O)N3CCCCC3C(=O)O2)CCC1O (centres unmarked); < 6.10
COC1CC(CC(C)C2CC(=O)C(C)C=C(C)C(O)C(OC)C(=O)C(C)CC(C)C=CC=CC=C(C)C(OCC3CCCC3)CC3CCC(C)C(O)(O3)C(=O)C(=O)N3CCCCC3C(=O)O2)CCC1O (centres unmarked); < 6.10

Q: # get_value(readout='pKd', item= CO[C@@H]1C[C@H](C[C@@H](C)[C@@H]2CC(=O)[C@H](C)/C=C(\C)[C@@H](O)[C@@H](OC)C(=O)[C@H](C)C[C@H](C)/C=C/C=C/C=C(\C)[C@@H](OCC3CCS(=O)(=O)C3)C[C@@H]3CC[C@@H](C)[C@@](O)(O3)C(=O)C(=O)N3CCCC[C@H]3C(=O)O2)CC[C@H]1O (some centres unmarked) )
A: < 6.10

Q: # get_value(readout='pKd', item= CO[C@@H]1C[C@H](C[C@@H](C)[C@@H]2CC(=O)[C@H](C)/C=C(\C)[C@@H](O)[C@@H](OC)C(=O)[C@H](C)C[C@H](C)/C=C/C=C/C=C(\C)[C@@H](OCCC3COC3)C[C@@H]3CC[C@@H](C)[C@@](O)(O3)C(=O)C(=O)N3CCCC[C@H]3C(=O)O2)CC[C@H]1O )
A: < 6.10

Q: # get_value(readout='pKd', item= CO[C@@H]1C[C@H](C[C@@H](C)[C@@H]2CC(=O)[C@H](C)/C=C(\C)[C@@H](O)[C@@H](OC)C(=O)[C@H](C)C[C@H](C)/C=C/C=C/C=C(\C)[C@@H](OCC3CCOC3)C[C@@H]3CC[C@@H](C)[C@@](O)(O3)C(=O)C(=O)N3CCCC[C@H]3C(=O)O2)CC[C@H]1O (some centres unmarked) )
A: < 6.10

Q: # get_value(readout='pKd', item= COCCOCCS(=O)(=O)NC1CC2CCC(C)C(O)(O2)C(=O)C(=O)N2CCCCC2C(=O)OC(C(C)CC2CCC(OCCO)C(OC)C2)CC(=O)C(C)C=C(C)C(O)C(OC)C(=O)C(C)CC(C)C=CC=CC=C1C (mixture of isomers) )
A: 6.10 to 6.52

Q: # get_value(readout='pKd', item= COC1CC(CC(C)C2CC(=O)C(C)C=C(C)C(O)C(OC)C(=O)C(C)CC(C)C=CC=CC=C(C)C(OC3CC3)CC3CCC(C)C(O)(O3)C(=O)C(=O)N3CCCCC3C(=O)O2)CCC1OCCO (centres unmarked) [Compound 47] )
A: < 6.10

---

Listed next: entries and their corresponding pKd.
target: FKBP12 / FRB ternary complex (Homo sapiens (Human), UniProt P42345+P62942); assay: SPR assay to characterize ternary complex formation with FKBP12 (FRB binding to rapalog-saturated FKBP12); details: FRB dilutions with 100 nM rapalog on immobilized FKBP12
pKd: −log10 of the molar value.

COC1CC(CC(C)C2CC(=O)C(C)C=C(C)C(O)C(OC)C(=O)C(C)CC(C)C=CC=CC=C(C)C(OC3CCOCC3)CC3CCC(C)C(O)(O3)C(=O)C(=O)N3CCCCC3C(=O)O2)CCC1O (stereo not drawn) [Compound 33]; < 6.10
COC1CC(CC(C)C2CC(=O)C(C)C=C(C)C(O)C(OC)C(=O)C(C)CC(C)C=CC=CC=C(C)C(OCC3CC3)CC3CCC(C)C(O)(O3)C(=O)C(=O)N3CCCCC3C(=O)O2)CCC1O (stereo not drawn) [Compound 39]; 6.10 to 6.52
CCOC(=O)COC1CCC(CC(C)C2CC(=O)C(C)C=C(C)C(O)C(OC)C(=O)C(C)CC(C)C=CC=CC=C(C)C(OC3CC3)CC3CCC(C)C(O)(O3)C(=O)C(=O)N3CCCCC3C(=O)O2)CC1OC (stereo not drawn) [Compound 48]; 6.10 to 6.52

Q: Recorded pKd for COC1CC(CC(C)C2CC(=O)C(C)C=C(C)C(O)C(OC)C(=O)C(C)CC(C)C=CC=CC=C(C)C(NS(=O)(=O)C3CC3)CC3CCC(C)C(O)(O3)C(=O)C(=O)N3CCCCC3C(=O)O2)CCC1O (mixture of isomers) [Compound 1] with FKBP12 / FRB ternary complex (Homo sapiens (Human), UniProt P42345+P62942), please?
A: 6.10 to 6.52

Q: Recorded pKd for CCOC(=O)COC1CCC(CC(C)C2CC(=O)C(C)C=C(C)C(O)C(OC)C(=O)C(C)CC(C)C=CC=CC=C(C)C(NS(=O)(=O)CCOC)CC3CCC(C)C(O)(O3)C(=O)C(=O)N3CCCCC3C(=O)O2)CC1OC (mixture of isomers) [Compound 14] with FKBP12 / FRB ternary complex (Homo sapiens (Human), UniProt P42345+P62942), please?
A: < 6.10
